- System: Wild type
- protocol.summary: S. aureus survival, RN4220 and DeltatarO strains – OD600, teichoic acid synthesis inhibitors, primary screen (AID 463173)
- condition.set: S. aureus RN4220 wild type/DeltatarO growth, OD600, 18 h, screened at 18.75 µg/mL (by protocol)
Screen size: about 52,000 compounds; about 1,700 (3.3%) were called active. Rule as the data show it: active = survival mostly below about 52% (no sharp cut-off); inactive = mostly above about 56%. The full list was thinned out, with actives kept by preference.
The reply should name one outcome from active, inactive

INSERT INTO assay_data (compound, label_class) VALUES
  ('CCc1ccc(C(=O)CC2(O)C(=O)N(Cc3ccc(C)cc3)c3ccccc32)cc1 (stereo unspecified)', 'inactive'),
  ('Cc1ccc(CSc2nc3ccncc3n2Cc2nc(-c3ccc(Cl)cc3)oc2C)cc1', 'inactive'),
  ('Cc1ccc(-n2ncc3c(NCCc4ccccc4)ncnc32)cc1', 'inactive'),
  ('Cc1ccc(CNC(=O)c2cnn3c(C)c(Cc4c(F)cccc4Cl)c(C)nc23)cc1', 'inactive');

Test call for this compound, please: Cc1ccc(CN2C(=O)C(O)(CC(=O)c3ccc(C)cc3)c3ccccc32)cc1 (stereo unspecified) inactive

Test call for this compound, please: `Cc1nc2nc(NCc3ccc(Cl)cc3)[nH]n2c(=O)c1Cc1ccccc1` inactive

Test call for this compound, please: `CCCN(C(=O)C(C)C)c1nnc(-c2cc(OC)c(OC)c(OC)c2)s1` inactive

---

- Test system: Wild type
- protocol.summary: S. aureus survival, RN4220 and DeltatarO strains – OD600, teichoic acid synthesis inhibitors, primary screen (AID 463173)
- condition.set: S. aureus RN4220 wild type/DeltatarO growth, OD600, 18 h, screened at 18.75 µg/mL (by protocol)
Hit rate of the full screen: of about 52,000 compounds, about 1,700 (3.3%) were called active. Cut-off read from the data, not from the text of the source: active = survival mostly below about 52% (no sharp cut-off); inactive = mostly above about 56%. This is one part of a sample in which actives are shown more often than they occur.
The reply should name one outcome from y for active, n for inactive

Below are worked cases with known answers.
INSERT INTO results (compound, label_class) VALUES
  ('Cc1ccccc1Nc1c(-c2ccc(Cl)cc2)nc2c(C)cccn12', 'n'),
  ('CC1CCCc2sc3nc(SCC(=O)c4ccc(Br)cc4)nc(N)c3c21 (stereo unspecified)', 'n'),
  ('Cc1cccn2c(Nc3ccccc3)c(-c3cccs3)nc12', 'n'),
  ('Cc1cccn2c(Nc3ccccc3)c(-c3ccc(N4CCOCC4)cc3)nc12', 'n'),
  ('CCOC(=O)c1c(C(=O)CSc2ncc(-c3ccc(F)cc3)n2Cc2ccco2)sc2c1CCCC2', 'n'),
  ('CCOc1ccc(S(=O)(=O)n2nc(C)c(S(=O)(=O)N3CCCCC3)c2C)cc1', 'n'),
  ('Cc1ccccc1Nc1c(-c2ccsc2)nc2c(C)cccn12', 'y'),
  ('Cc1ccc(Nc2c(-c3ccc(C)cc3)nc3c(C)cccn23)cc1', 'y');

Test call for this compound, please: CC(C)CC(NC(=O)C1CCCCC1)C(=O)Nc1cccc(C(F)(F)F)c1 (stereo unspecified) n

Test call for this compound, please: `Cc1cccn2c(=O)c3cc(C(=O)Nc4ccc(Cl)c(Cl)c4)sc3nc12` n

Test call for this compound, please: `Cc1ccccc1Nc1c(-c2ccc(O)cc2)nc2c(C)cccn12` n

---

- System: Wild type
- protocol.summary: S. aureus survival, RN4220 and DeltatarO strains – OD600, teichoic acid synthesis inhibitors, primary screen (AID 463173)
- condition.set: S. aureus RN4220 wild type/DeltatarO growth, OD600, 18 h, stronger effect = lower value, screened at 18.75 µg/mL (by protocol)
Screen size: about 52,000 compounds; about 1,700 (3.3%) were called active. This excerpt belongs to a sample that is enriched for actives.
Output TRUE for records whose survival is lower than 90%, FALSE for records at or above 90%.

Decide: survival of `NCc1ccc2[nH]c(=O)[nH]c2c1` strictly below 90%? FALSE

Decide: survival of `O=C(Nc1ccc2oc(-c3ccc4ccccc4c3)nc2c1)c1cc(Br)ccc1Cl` strictly below 90%? FALSE

Decide: survival of `COc1ccc(CNC(=O)c2cc3sccc3n2C)cc1` strictly below 90%? TRUE

Decide: survival of `Cc1ccc(-c2nc3cc(C(C)C)ccc3o2)cc1NC(=O)c1cccs1` strictly below 90%? TRUE

Decide: survival of `Cc1cccc(C(=O)Nc2ccc(-c3nc4cc(C(C)C)ccc4o3)cc2)c1` strictly below 90%? TRUE

Decide: survival of `COc1ccc(-c2cn3nc(SCC(=O)Nc4cc(C)cc(C)c4)ccc3n2)cc1` strictly below 90%? TRUE

Decide: survival of `Cc1cc(N2CCC(C)CC2)nc2ccc(NC(=O)CCC(=O)N3CCN(c4cccc(C(F)(F)F)c4)CC3)cc12` strictly below 90%? TRUE

Decide: survival of `O=C(NCCNCc1ccccc1)c1ccco1` strictly below 90%? FALSE
